In what follows, each item is paired with its IC50 for Pim-2 (Homo sapiens (Human), UniProt Q9P1W9).

A selection of reference data follows.
Nc1sc2cc(F)cnc2c1C(=O)Nc1cnccc1N1CCC[C@H](N)C1 = 100 to 1000 nM
Nc1sc2cccnc2c1C(=O)Nc1cnccc1N1CCC[C@H](N)C1 = 100 to 1000 nM
CN(C)CCCc1cnc2c(C(=O)Nc3cnccc3N3C[C@@H](N)C[C@@H](C(F)(F)F)C3)c(N)oc2c1 = 10 to 100 nM

Continue with the next compound.
[Q] Recall the recorded IC50 for `Cc1cnc2c(C(=O)Nc3cnccc3N3C[C@@H](N)C[C@@H](C(F)(F)F)C3)c(N)oc2c1` with Pim-2 (Homo sapiens (Human), UniProt Q9P1W9) and state it.
Sequence (Q9P1W9 whole entry): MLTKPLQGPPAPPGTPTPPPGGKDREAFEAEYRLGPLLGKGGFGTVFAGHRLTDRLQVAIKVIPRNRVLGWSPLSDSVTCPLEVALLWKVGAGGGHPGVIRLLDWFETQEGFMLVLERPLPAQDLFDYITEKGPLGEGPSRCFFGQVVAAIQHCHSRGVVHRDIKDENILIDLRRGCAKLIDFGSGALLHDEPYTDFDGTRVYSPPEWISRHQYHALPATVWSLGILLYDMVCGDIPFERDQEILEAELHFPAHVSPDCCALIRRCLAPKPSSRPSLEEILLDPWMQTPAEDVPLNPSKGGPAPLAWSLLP
[A] ≤ 10 nM
